# Test details: Percentage of administered dose recovered as unchanged drug in urine after oral administration
# Assay type: ADME, organism-based
# Design: dosed compound id 2.58283e+06, dosed compound name Idarubicin, route oral
# Measurement conditions: human, read-out: Compound recovery

- Structure notation: "CC(=O)[C@]1(O)Cc2c(O)c3c(c(O)c2[C@@H](O[C@H]2C[C@H](N)[C@H](O)[C@H](C)O2)C1)C(=O)c1ccccc1C3=O"
  dose excreted [%]: 0.6
